tested on: U-937; assay: Induction of apoptosis in human U937 cells assessed as total LDH activity at IC50 by spectrophotometric method; assay type: functional
property measured: Activity

Request: Provide Activity value for the following molecule: C[C@H](CC[C@@]1(O)O[C@H]2C[C@H]3[C@@H]4CC[C@H]5C[C@@H](O[C@@H]6O[C@H](CO)[C@H](O[C@@H]7O[C@H](CO)[C@@H](O)[C@H](O[C@@H]8OC[C@@H](O)[C@H](O)[C@H]8O)[C@H]7O[C@@H]7O[C@H](CO)[C@H](O)[C@H](O)[C@H]7O)[C@H](O)[C@H]6O)[C@H](O)C[C@]5(C)[C@H]4CC[C@]3(C)[C@H]2[C@@H]1C)CO[C@@H]1O[C@H](CO)[C@@H](O)[C@H](O)[C@H]1O [PARVISPINOSIDE A]
Result: 28%

====

system: HepG2; test: Cytotoxicity against human HepG2 cells after 48 hrs by acid phosphatase method; type: functional, cell-based; conditions: HepG2, 48 h
For each record, write down the corresponding IC50.
Numbers only, in µM.

// below: answered molecules
Oc1ccc(/C=C/c2cc(O)cc(O)c2)cc1 ... 50
CO[C@]1(CC[C@@H](C)CO[C@@H]2O[C@H](CO)[C@@H](O)[C@H](O)[C@H]2O)O[C@H]2C[C@H]3[C@@H]4CC[C@H]5C[C@@H](O[C@@H]6O[C@H](CO)[C@H](O[C@@H]7O[C@H](CO)[C@@H](O)[C@H](O[C@@H]8OC[C@@H](O)[C@H](O)[C@H]8O)[C@H]7O[C@@H]7O[C@H](CO)[C@H](O)[C@H](O)[C@H]7O)[C@H](O)[C@H]6O)[C@H](O)C[C@]5(C)[C@H]4CC[C@]3(C)[C@H]2[C@@H]1C [22-O-METHYLPARVISPINOSIDE A] ... 30
CO[C@]1(CC[C@@H](C)CO[C@@H]2O[C@H](CO)[C@@H](O)[C@H](O)[C@H]2O)O[C@H]2C[C@H]3[C@@H]4CC[C@H]5C[C@@H](O[C@@H]6O[C@H](CO)[C@H](O[C@@H]7O[C@H](CO)[C@@H](O)[C@H](O[C@@H]8OC[C@@H](O)[C@H](O)[C@H]8O)[C@H]7O[C@@H]7O[C@H](CO)[C@H](O)[C@H](O)[C@H]7O)[C@H](O)[C@H]6O)CC[C@]5(C)[C@H]4CC[C@]3(C)[C@H]2[C@@H]1C [22-O-METHYLPARVISPINOSIDE B] ... 30

Request: Give the reported value of IC50 for this record: C[C@@H]1CC[C@@]2(OC1)O[C@H]1C[C@H]3[C@@H]4CC[C@H]5C[C@@H](O[C@@H]6O[C@H](CO)[C@H](O[C@@H]7O[C@H](CO)[C@@H](O)[C@H](O[C@@H]8OC[C@@H](O)[C@H](O)[C@H]8O)[C@H]7O[C@@H]7O[C@H](CO)[C@H](O)[C@H](O)[C@H]7O)[C@H](O)[C@H]6O)CC[C@]5(C)[C@H]4CC[C@]3(C)[C@H]1[C@@H]2C
Result: 3

====

test system: U-937; experiment: Induction of apoptosis in human U937 cells assessed as total LDH activity at IC50 by spectrophotometric method; format: functional
property measured: Activity (%)
Numbers only, in %.

Record excerpt, results attached:
C[C@@H]1CC[C@@]2(OC1)O[C@H]1C[C@H]3[C@@H]4CC[C@H]5C[C@@H](O[C@@H]6O[C@H](CO)[C@H](O[C@@H]7O[C@H](CO)[C@@H](O)[C@H](O[C@@H]8OC[C@@H](O)[C@H](O)[C@H]8O)[C@H]7O[C@@H]7O[C@H](CO)[C@H](O)[C@H](O)[C@H]7O)[C@H](O)[C@H]6O)CC[C@]5(C)[C@H]4CC[C@]3(C)[C@H]1[C@@H]2C ... 25
CO[C@]1(CC[C@@H](C)CO[C@@H]2O[C@H](CO)[C@@H](O)[C@H](O)[C@H]2O)O[C@H]2C[C@H]3[C@@H]4CC[C@H]5C[C@@H](O[C@@H]6O[C@H](CO)[C@H](O[C@@H]7O[C@H](CO)[C@@H](O)[C@H](O[C@@H]8OC[C@@H](O)[C@H](O)[C@H]8O)[C@H]7O[C@@H]7O[C@H](CO)[C@H](O)[C@H](O)[C@H]7O)[C@H](O)[C@H]6O)[C@H](O)C[C@]5(C)[C@H]4CC[C@]3(C)[C@H]2[C@@H]1C [22-O-METHYLPARVISPINOSIDE A] ... 38
CO[C@]1(CC[C@@H](C)CO[C@@H]2O[C@H](CO)[C@@H](O)[C@H](O)[C@H]2O)O[C@H]2C[C@H]3[C@@H]4CC[C@H]5C[C@@H](O[C@@H]6O[C@H](CO)[C@H](O[C@@H]7O[C@H](CO)[C@@H](O)[C@H](O[C@@H]8OC[C@@H](O)[C@H](O)[C@H]8O)[C@H]7O[C@@H]7O[C@H](CO)[C@H](O)[C@H](O)[C@H]7O)[C@H](O)[C@H]6O)CC[C@]5(C)[C@H]4CC[C@]3(C)[C@H]2[C@@H]1C [22-O-METHYLPARVISPINOSIDE B] ... 50

Next compound, Activity to be filled in.
Request: Lab note: U-937 assay, enter Activity for C[C@H](CC[C@@]1(O)O[C@H]2C[C@H]3[C@@H]4CC[C@H]5C[C@@H](O[C@@H]6O[C@H](CO)[C@H](O[C@@H]7O[C@H](CO)[C@@H](O)[C@H](O[C@@H]8OC[C@@H](O)[C@H](O)[C@H]8O)[C@H]7O[C@@H]7O[C@H](CO)[C@H](O)[C@H](O)[C@H]7O)[C@H](O)[C@H]6O)CC[C@]5(C)[C@H]4CC[C@]3(C)[C@H]2[C@@H]1C)CO[C@@H]1O[C@H](CO)[C@@H](O)[C@H](O)[C@H]1O [PARVISPINOSIDE B] here
Result: 27
